Experiment: In vivo pharmacokinetics of KY19382
Parameters: species or system Sprague-Dawley (SD) rats
Conditions: male, Sprague-Dawley, plasma; IV, 1 mg/kg, rat, mean
QUANTITY_MEASURED: half-life (h)
# number only, unit h dropped from output

Given item CO/N=C1/C(=C2/C(=O)Nc3cc(Cl)c(Cl)cc32)Nc2ccccc21 , the value recorded as its half-life is 3.33

###

Biological target: CXXC5-DVL interaction (Homo sapiens)
Construct: 5 mg/ml purified DVL PDZ domain was incubated in each well
Assay: In vitro CXXC5-DVL binding assay (FITC-tagged PTD-DBMP on DVL PDZ domain)
Details: compound 30 μM; fluorescent intensity normalized to DMSO-treated control; read-out: CXXC5-DVL interaction (%)
QUANTITY_MEASURED: remaining activity at 30 µM (%)
Supply the numeric figure in %, leaving out any unit text.

* O=c1c(O)c(-c2cc(O)c(O)c(O)c2)oc2cc(O)cc(O)c12 [Compound 13] | 7.66

CXXC5-DVL interaction (Homo sapiens) assay, molecule CCN(CC)S(=O)(=O)c1ccc(OC)c(Nc2cc(-c3ccccc3)nc(C)n2)c1 [Compound 6] , recorded remaining activity at 30 µM = 7.63

remaining activity at 30 µM of Cc1cc(C)c2c(O)nc(SCC(=O)c3ccc(O)c(O)c3)nc2n1 [Compound 3] , assay on CXXC5-DVL interaction (Homo sapiens), is 4.01

Reported CXXC5-DVL interaction (Homo sapiens) remaining activity at 30 µM for item CN1CCc2cc(O)cc3c2[C@H]1Cc1ccc(O)c(O)c1-3 [Compound 9] was 2.5

The molecule COc1ccc(C2CC(=O)C3=C(C2)Nc2onc(C)c2C3c2ccc(O)c(O)c2)cc1OC (stereo not drawn) [Compound 7] , when measured on CXXC5-DVL interaction (Homo sapiens), yielded remaining activity at 30 µM of 0.72

The observed remaining activity at 30 µM for O=c1c(O)c(-c2ccc(O)cc2O)oc2cc(O)cc(O)c12 [Compound 15] when tested with CXXC5-DVL interaction (Homo sapiens) stands at 7.43

###

Assay: In vivo pharmacokinetics of KY19382
Set-up: species or system Sprague-Dawley (SD) rats
Settings: male, Sprague-Dawley, plasma; IV, 1 mg/kg, rat, mean
QUANTITY_MEASURED: clearance (mL/min/kg)
API: value field is a number in mL/min/kg; no unit string.

response.value for CO/N=C1/C(=C2/C(=O)Nc3cc(Cl)c(Cl)cc32)Nc2ccccc21 [KY19382, 5,6-dichloroindirubin-3′-methoxime] (field: clearance) = 2

###

Test: In vivo pharmacokinetics of KY19382
Design: species or system Sprague-Dawley (SD) rats
Conditions: male, Sprague-Dawley, plasma; IP, 5 mg/kg, rat, mean
QUANTITY_MEASURED: AUC(0-t) (µg·h/mL)
Lab book: enter the figure in µg·h/mL, no units written.

Lab note: measured AUC(0-t) of CO/N=C1/C(=C2/C(=O)Nc3cc(Cl)c(Cl)cc32)Nc2ccccc21 was 6.56

###

Target: CXXC5-DVL interaction (Homo sapiens, UniProt O14640)
Construct: 5 mg/ml purified DVL PDZ domain was incubated in each well
Sequence (O14640 251-323 limits assumed): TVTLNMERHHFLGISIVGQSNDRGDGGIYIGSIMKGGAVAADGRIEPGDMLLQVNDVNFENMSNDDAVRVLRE
Experiment: In vitro CXXC5-DVL binding assay (FITC-tagged PTD-DBMP on DVL PDZ domain)
Conditions: from dose-response curve, FIG. 4B
QUANTITY_MEASURED: IC50 (nM)
// return numeric value only (unit: nM, not printed)

Lookup result for CO/N=C1/C(=C2/C(=O)Nc3cc(Cl)c(Cl)cc32)Nc2ccccc21 ; measured IC50: 19

###

Target: UniProt P49841
Sequence (P49841 whole entry): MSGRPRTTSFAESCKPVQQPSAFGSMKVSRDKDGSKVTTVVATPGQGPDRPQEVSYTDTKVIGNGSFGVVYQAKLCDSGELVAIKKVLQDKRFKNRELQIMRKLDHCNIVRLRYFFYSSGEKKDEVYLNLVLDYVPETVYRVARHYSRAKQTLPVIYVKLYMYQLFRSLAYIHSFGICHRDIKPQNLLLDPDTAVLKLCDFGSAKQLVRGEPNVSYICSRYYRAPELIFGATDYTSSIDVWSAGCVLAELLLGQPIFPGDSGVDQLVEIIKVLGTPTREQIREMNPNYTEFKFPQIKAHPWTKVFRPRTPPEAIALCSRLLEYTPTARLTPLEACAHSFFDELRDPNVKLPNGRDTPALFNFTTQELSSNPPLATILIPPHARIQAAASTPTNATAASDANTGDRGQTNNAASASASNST
QUANTITY_MEASURED: pIC50
Just the number, please; pIC50 means minus log10 of the concentration in mol/L.

Record for CO/N=C1/C(=C2/C(=O)Nc3cc(Cl)c(Cl)cc32)Nc2ccccc21 [KY19382, 5,6-dichloroindirubin-3′-methoxime] under target or system UniProt P49841: pIC50 reported as 8.00

###

Assay: In vivo pharmacokinetics of KY19382
Design: species or system Sprague-Dawley (SD) rats
Conditions: male, Sprague-Dawley, plasma, intraperitoneal; IP, 5 mg/kg vs IV, 1 mg/kg, rat
QUANTITY_MEASURED: bioavailability (%)
Number only, in %; omit the unit.

Recorded bioavailability (compound CO/N=C1/C(=C2/C(=O)Nc3cc(Cl)c(Cl)cc32)Nc2ccccc21 [KY19382, 5,6-dichloroindirubin-3′-methoxime] ): 16.7

###

Assay: In vivo pharmacokinetics of KY19382
Set-up: species or system Sprague-Dawley (SD) rats
Conditions: male, Sprague-Dawley, plasma; IV, 1 mg/kg, rat, mean
QUANTITY_MEASURED: AUC(0-t)

For record CO/N=C1/C(=C2/C(=O)Nc3cc(Cl)c(Cl)cc32)Nc2ccccc21 [KY19382, 5,6-dichloroindirubin-3′-methoxime] the listed AUC(0-t) is 7830 ng·h/mL

###

Experiment: In vivo pharmacokinetics of KY19382
Set-up: species or system Sprague-Dawley (SD) rats
Details: male, Sprague-Dawley, plasma; IP, 5 mg/kg, rat, mean
QUANTITY_MEASURED: half-life (h)
Enter your answer as a number in h; do not include the unit.

Record CO/N=C1/C(=C2/C(=O)Nc3cc(Cl)c(Cl)cc32)Nc2ccccc21 [KY19382, 5,6-dichloroindirubin-3′-methoxime] , field half-life: 16.2

###

Test: In vivo pharmacokinetics of KY19382
Set-up: species or system Sprague-Dawley (SD) rats
Conditions: male, Sprague-Dawley, plasma; IP, 5 mg/kg, rat, mean
Protocol: In vivo pharmacokinetics of KY19382. Animal studies were approved by the Institutional Animal Care and use committee at KRIBB. […] Pharmacokinetic parameters were calculated by standard noncompartmental analysis of plasma concentration-time profiles using Kinetica 4.4.1 (Thermo Fisher Scientific, Inc., Woburn, Mass., USA). The areas under the plasma concentration-time curves (AUC) were calculated by the linear-trapezoidal method. […]
QUANTITY_MEASURED: Cmax

Sure, the documented Cmax for CO/N=C1/C(=C2/C(=O)Nc3cc(Cl)c(Cl)cc32)Nc2ccccc21 is 463 ng/mL

###

Target: CXXC5-DVL interaction (Homo sapiens, UniProt O14640)
Construct: 5 mg/ml purified DVL PDZ domain was incubated in each well
Experiment: In vitro CXXC5-DVL binding assay (FITC-tagged PTD-DBMP on DVL PDZ domain)
Conditions: compound 30 μM; fluorescent intensity normalized to DMSO-treated control; read-out: CXXC5-DVL interaction (%)
Method: Screening for compounds that inhibit the CXXC5-DVL interaction. […] Briefly, 5 mg/ml purified DVL PDZ domain was incubated in each well of a 96-well Maxibinding Immunoplate (SPL) at 4° C. for 16 hours. […] The fluorescence intensity was measured using a Fluorstar Optima microplate reader (BGM Lab Technologies, Ortenberg, Germany). The binding values were calculated as a percent ratio of the fluorescent intensity normalized to the DMSO-treated control.
Entries and their remaining activity at 30 µM values follow.

- CC(N)(Cc1ccc(O)c(O)c1)C(=O)O (stereo not drawn): 7.65%
- O=c1cc(O)cc(/C=C/c2ccc(O)c(O)c2)o1: 1.73%
- O=C1Nc2ccccc2/C1=C1/Nc2ccccc2/C1=N\O [Compound 12, indirubin-3′-oxime, reference compound]: 7.65%
- COc1ccc(C2CC(C(F)(F)F)n3ncc(C(=O)O)c3N2)cc1OC (stereo not drawn): 1.01%
- COC(=O)C1=C(C)N/C(=C/c2cc(C)n(-c3ccccc3F)c2C)C1=O: 4.76%
- Oc1cc(O)cc(/C=C/c2ccc(O)c(O)c2)c1: 7.61%
- O=C(OCCN1CCOCC1)C1(c2ccccc2)CCCCC1: 5.7%
- O=C(O)C1Sc2[nH]c(=O)sc2C2c3cc(Br)cc(Br)c3OC(=O)C12 (stereo not drawn): 1.19%

Per the record, COc1ccc(C)cc1/N=N/c1ccc(O)c2nc(/C=N/O)ccc12 has remaining activity at 30 µM of 7.62%
